Tested on: CD2F1 mice, L1210 leukemia ip, survival T/C
Test: NCI In Vivo Anticancer Drug Screen. Data for tumor model L1210 Leukemia (intraperitoneal) in CD2F1 (CDF1) mice
Setup Conditions: endpoint: mean survival time; dose: 100.0 mg/kg/injection; schedule: Q04DX003 (ip); vehicle: other; higher = longer survival
Inconclusive results and toxic doses are left out.
Each item that follows carries a reported T/C.

Molecule: S=c1[nH]c2ccccc2nc1NCc1ccccc1
Target Desc: CD2F1 mice, L1210 leukemia ip, survival T/C
T/C: 91 % of control
--
Molecule: CCOCC(=O)CC(C)C
Target Desc: CD2F1 mice, L1210 leukemia ip, survival T/C
T/C: 100 % of control
--
Molecule: CC1C2CCC(C2)C1C(=O)O (centres undefined)
Target Desc: CD2F1 mice, L1210 leukemia ip, survival T/C
T/C: 94 % of control

Next molecule, T/C to be filled in.
Entry under review: `CCCCCCCCCCCCSS(=O)(=O)c1ccc(C)cc1` . Reported T/C?
95 % of control

----------
Tested on: CD2F1 mice, L1210 leukemia ip, survival T/C
Test: NCI In Vivo Anticancer Drug Screen. Data for tumor model L1210 Leukemia (intraperitoneal) in CD2F1 (CDF1) mice
Setup Conditions: endpoint: mean survival time; dose: 400.0 mg/kg/injection; schedule: Q04DX003 (ip); vehicle: saline with Tween-80; higher = longer survival
Toxic doses and inconclusive results are not listed.
Measured Metric: T/C

Molecule: CCC(=O)Nc1ccccc1OS(=O)(=O)N(C)C
Target Desc: CD2F1 mice, L1210 leukemia ip, survival T/C
T/C: 98 % of control

Could you tell me which T/C is on file for CC(=O)OC1C2CCC(C2)C1C (stereo not given) ?
92 % of control

Now consider CC(C)(C)C(CCC(=O)O)CC(=O)O (stereo not given) .
100 % of control

Try this molecule too: `Cc1ccc(NC(=O)c2ccccc2Cl)c(C)c1`
97 % of control

Next: `O=C(O)c1ccc(NC(=S)NC(=O)c2cccc(Br)c2)cc1`
93 % of control

Further, for OCC1C2C=CC1CC2 (stereo not given) ?
96 % of control

----------
Item-by-item account of T/C
Tested on: CD2F1 mice, L1210 leukemia ip, survival T/C
Test: NCI In Vivo Anticancer Drug Screen. Data for tumor model L1210 Leukemia (intraperitoneal) in CD2F1 (CDF1) mice
Setup Conditions: endpoint: mean survival time; dose: 400.0 mg/kg/injection; schedule: Q01DX001 (ip); vehicle: saline with Tween-80; higher = longer survival
Procedure: The antitumor activity of compounds was measured in mice bearing transplantable tumors. Survival or tumor size were measured and the results are expressed as the measurement made in the treated group (T) divided by the measurement made in the vehicle treated control group (C). The tumor model used in this assay is L1210 Leukemia (intraperitoneal) in CD2F1 (CDF1) mice
Inconclusive results and toxic doses are left out.

Solved entries (count: 4):
Compound: O=C1C2CC=CCC2C(=O)C2CC=CCC12 (stereo not drawn)
Target Desc: CD2F1 mice, L1210 leukemia ip, survival T/C
Value Reported: 101 % of control
//
Compound: CCN(CC)Cc1cc(Nc2ncnc3oc(C)c(C)c23)ccc1O
Target Desc: CD2F1 mice, L1210 leukemia ip, survival T/C
Value Reported: 95 % of control
//
Compound: CCCCCCCCCCCCCCCCCCCOc1ccc(OCCCCCCCCCCCC)cc1
Target Desc: CD2F1 mice, L1210 leukemia ip, survival T/C
Value Reported: 88 % of control
//
Compound: O=C1C2CCN(CC2)C1COc1cccc2ccccc12 (stereo not drawn)
Target Desc: CD2F1 mice, L1210 leukemia ip, survival T/C
Value Reported: 102 % of control

Now turn to the next compound.
Bench note: what T/C did CC(C)CC(Nc1sc([N+](=O)[O-])cc1[N+](=O)[O-])C(=O)O (stereo not drawn) show?
107 % of control
